# Test system: SF-539 CNS
# EXPERIMENTAL_DETAILS: NCI-60 one-dose screen, 48 h (100 = growth as untreated, 0 = no growth, -100 = all killed)
# TEST_SETTINGS: 10 µM unless noted
About 83,000 compounds went through this panel and 20% of them were active in at least one assay; those are over-represented in the sample as a whole.

{"COMPOUND_STRUCTURE_STRING": "C=CC(=O)N[C@@H](/C=C/C(=O)OCC)Cc1ccc(-c2cc(Cl)cc(Cl)c2)cc1", "growth, %": 56.8}
{"COMPOUND_STRUCTURE_STRING": "Cc1nn(-c2ccccc2)c(Cl)c1/C=C/C(=O)c1ccc(F)cc1", "growth, %": 89.9}
{"COMPOUND_STRUCTURE_STRING": "C=C(C)[C@@H]1CC[C@]2(C(=O)N3CCN(C)CC3)CC[C@]3(C)[C@H](CC[C@@H]4[C@@]5(C)C/C(=C/c6cccnc6)C(=O)C(C)(C)[C@@H]5CC[C@]43C)[C@@H]12", "growth, %": 74.5}

###

# Tested on: UACC-257 melanoma
# EXPERIMENTAL_DETAILS: NCI-60 one-dose screen, 48 h (100 = growth as untreated, 0 = no growth, -100 = all killed)
# TEST_SETTINGS: 10 µM unless noted
About 83,000 compounds went through this panel and 20% of them were active in at least one assay; those are over-represented in the sample as a whole. Activity calls are given as the source filed them. The calls were made as follows: active = growth percent below 10; inactive = the rest.
Property: growth; scope: individual compounds
ASSAY_ENDPOINT: growth

{"COMPOUND_STRUCTURE_STRING": "O=S(=O)(NCCNc1nccc(-c2c(-c3cccc(O)c3)nc3occn23)n1)c1ccc(C(F)(F)F)cc1", "EXPERIMENTAL_RESULT": "61.1% (inactive)"}
{"COMPOUND_STRUCTURE_STRING": "C=CC(=O)N[C@@H](/C=C/C(=O)OCC)Cc1ccc(-c2cc(Cl)cc(Cl)c2)cc1", "EXPERIMENTAL_RESULT": "-2.68% (active)"}
{"COMPOUND_STRUCTURE_STRING": "CN1CCN(CCNc2nccc(-c3c(-c4cccc(O)c4)nc4sccn34)n2)S1(=O)=O", "EXPERIMENTAL_RESULT": "-10.6% (active)"}
{"COMPOUND_STRUCTURE_STRING": "CCN1CCN(CCNc2nccc(-c3c(-c4cccc(OC)c4)nc4occn34)n2)S1(=O)=O", "EXPERIMENTAL_RESULT": "52.7% (inactive)"}
{"COMPOUND_STRUCTURE_STRING": "CCOC(=O)c1nc2c3ccccc3ccn2c1C(=O)OCC", "EXPERIMENTAL_RESULT": "126% (inactive)"}
{"COMPOUND_STRUCTURE_STRING": "Cc1ccc(NS(=O)(=O)c2ccc(-c3cnc(C4CC4)o3)cc2)cc1C(F)(F)F", "EXPERIMENTAL_RESULT": "73.7% (inactive)"}

###

Property: growth; scope: individual compounds
# Tested on: HCC-2998 colon
# EXPERIMENTAL_DETAILS: NCI-60 one-dose screen, 48 h (100 = growth as untreated, 0 = no growth, -100 = all killed)
# TEST_SETTINGS: 10 µM unless noted
About 83,000 compounds went through this panel and 20% of them were active in at least one assay; those are over-represented in the sample as a whole.

{"COMPOUND": "C[C@H]1[C@H](C)CC[C@]2(C(=O)Nc3ccc4ncccc4c3)CC[C@]3(C)C(=CC[C@@H]4[C@@]5(C)CCCNC(C)(C)[C@@H]5CC[C@]43C)[C@H]12", "VALUE_UNIT": "%", "growth": -84.4}
{"COMPOUND": "COc1ccc(-c2cnc3c(-c4cccc5ncccc45)cnn3c2)cc1", "VALUE_UNIT": "%", "growth": 90.7}
{"COMPOUND": "COc1ccc(C(=O)c2nc3ccccc3n2CC(=O)c2ccc(F)cc2)cc1", "VALUE_UNIT": "%", "growth": 65.3}
{"COMPOUND": "COc1cc(NC(C)CCCNC(=O)CCC(=O)NCCCNCCCCCCCCNCCCNC(=O)CCC(=O)NCCCC(C)Nc2cc(OC)cc3cccnc23)c2ncccc2c1 (centres undefined)", "VALUE_UNIT": "%", "growth": 69.5}
{"COMPOUND": "CC(Oc1ccc(C(=O)O)cc1C(F)(F)F)c1ccc(Oc2ccccc2)cn1 (centres undefined)", "VALUE_UNIT": "%", "growth": 108}
{"COMPOUND": "O=Cc1cc2ccccc2nc1Oc1ccc(C(F)(F)F)cc1", "VALUE_UNIT": "%", "growth": 108}
{"COMPOUND": "Cc1ccc(NS(=O)(=O)c2ccc(-c3cnc(C4CC4)o3)cc2)cc1C(F)(F)F", "VALUE_UNIT": "%", "growth": 84.1}
{"COMPOUND": "COc1ccc(/C=C2\\COc3ccc(-c4ccccc4)cc3C2=O)c(OC)c1", "VALUE_UNIT": "%", "growth": 75.4}
{"COMPOUND": "C/C=C(\\C)C(=O)NC1=CC[C@@]2(C)C(=CCC3C2CC[C@@]2(C)C3CC[C@@H]2C(C)N(C)C)C1=O (some centres undefined)", "VALUE_UNIT": "%", "growth": 31.3}
{"COMPOUND": "O=C(CCN1CCCC1)Nc1ccc2c(NCCCc3ccccc3)c3ccccc3nc2c1", "VALUE_UNIT": "%", "growth": 2.16}
{"COMPOUND": "COc1cc(/C=N/NC(=O)c2cnn3c2NC(c2ccccc2)C3)ccc1Oc1ccccc1 (centres undefined)", "VALUE_UNIT": "%", "growth": 57.3}
{"COMPOUND": "O=[N+]([O-])CC(c1ccccc1)c1c[nH]c2ccccc12 (centres undefined)", "VALUE_UNIT": "%", "growth": 77.2}
{"COMPOUND": "CCOC(=O)C1=C(C)NC(SCc2cc(=O)oc3ccc(F)cc23)=N[C@@H]1c1cccc2ccccc12", "VALUE_UNIT": "%", "growth": 105}
{"COMPOUND": "N#CC1C(C#N)C2c3ccccc3C=CN2C1C(=O)c1ccc(Br)cc1 (centres undefined)", "VALUE_UNIT": "%", "growth": 112}
